# COND: buffer; pH 7.4; 200.0 µM
EXPERIMENTAL_READOUT: solubility kinetic (µg/mL)
Numeric only. Scale: µg/mL

Consider the worked cases shown below.
S=c1[nH]c2cc(Br)cnc2[nH]1: 34.4
S=C(Nc1ccccc1)N1CCc2ccccc21: 23.8
Cc1ccc(NC(=S)NCc2ccccc2)cc1C: 5.1

Query: Entry "CCOc1cc(/C=C2\SC(=O)N(c3ccc(O)cc3)C2=O)ccc1O" has what solubility kinetic?
Result: 4

Query: Entry "CC(C)C(=O)N=c1sc2cccc(F)c2n1C" has what solubility kinetic?
Result: 13.2

Query: Entry CCOC(=O)c1cccc(NC(=O)CC2Oc3ccccc3NC2=O)c1 (stereo not given) has what solubility kinetic?
Result: 1.8

Query: Entry "Cc1cccc(N2CCN(C(=O)NCc3ccc(F)cc3)CC2)c1C" has what solubility kinetic?
Result: 3.2

Query: Entry "Cc1noc(C)c1NC(=O)NC(c1ccccc1)c1ccccc1" has what solubility kinetic?
Result: 10.2

Query: Entry Cl.OC(CN1CCNCC1)Cn1c2ccccc2c2ccccc21 (stereo not given) has what solubility kinetic?
Result: 54.4

Query: Entry "Cc1ccc(S(=O)(=O)N2CCOCC2)cc1C(=O)OCC(=O)c1c(N)n(C)c(=O)n(C)c1=O" has what solubility kinetic?
Result: 38.9

Query: Entry "O=C(/C=C/c1cccc(F)c1)OCC(=O)N1CCc2ccccc21" has what solubility kinetic?
Result: 3.2

Query: Entry "CCn1c(SCc2ccccc2)nc2c(c1=O)SCC2" has what solubility kinetic?
Result: 13.5

Query: Entry "CC(=O)c1ccc(-n2cc(C#N)c(=O)[nH]c2=O)cc1" has what solubility kinetic?
Result: 34.7

Query: Entry Cc1ccc(C(=O)N2CCn3c(C)ccc3C2C)cc1 (stereo not given) has what solubility kinetic?
Result: 23.1

Query: Entry CC(C(=O)O)N1CCCCC1.Cl (stereo not given) has what solubility kinetic?
Result: 24.3

Query: Entry "NC(=O)c1ccsc1NC(=O)c1ccc([N+](=O)[O-])o1" has what solubility kinetic?
Result: 20.5

###

# COND: buffer; pH 7.4; 200.0 µM
Label rule, in plain words: solubility kinetic of 10 µg/mL and up is met, under 10 µg/mL is not met.

Sample answers from the record:
O=[N+]([O-])c1cccc(N2Cc3ccccc3C2)c1: not met
Cc1ccc(C(=O)Nc2ccc(Nc3ccccc3)cc2)cc1C: not met

Query: Check if solubility kinetic >= 10 µg/mL (inclusive). Item: "O=C(CSc1ccc(F)cc1)Nc1cccc(S(=O)(=O)N2CCOCC2)c1"
Result: met

###

Entries and their solubility kinetic
# COND: buffer; pH 7.4; 200.0 µM

Consider the worked cases shown below.
Clc1ccc(C[n+]2cc(-c3ccc(Cl)cc3)n3c2CCC3)cc1.[Cl-]: > 57 µg/mL
Oc1nc(-c2ccc(Cl)cc2)n2ccncc12: > 36.9 µg/mL
CN1CCN(C(=O)c2ccc(-c3ccccc3)cc2)CC1: > 42.1 µg/mL

Query: Entry "C/C(=N\n1c(C)nc2ccccc2c1=O)c1ccc(C)o1" has what solubility kinetic?
Result: > 42.2 µg/mL

Query: Entry "COc1ccc(C(=O)N2CCN(Cc3nc(CC4CC4)no3)CC2)cc1" has what solubility kinetic?
Result: > 53.5 µg/mL

###

# COND: buffer; pH 7.4; 200.0 µM
Entries and their solubility kinetic

Cc1ccc(S(=O)(=O)N(C)CC(=O)N2CC(C)OC(C)C2)cc1 (stereo not drawn): > 51.1 µg/mL
CCc1nc(SCc2ccccn2)[nH]c(=O)c1C: > 39.2 µg/mL
O=[N+]([O-])c1ccccc1S(=O)(=O)Nc1ncccn1: > 42 µg/mL
CCOc1ccc(Nc2cc(C)c3ccccc3n2)cc1: < 0.3 µg/mL
NC(=S)N1CCCc2ccccc21: > 28.8 µg/mL

Query: Entry "c1ccc(-c2ccc(-c3ccncn3)cc2)cc1" has what solubility kinetic?
Result: < 0.2 µg/mL

Query: Entry "Cn1ccsc1=NC(=O)c1ccc(CS(C)(=O)=O)cc1" has what solubility kinetic?
Result: > 46.6 µg/mL

Query: Entry CC(NC(=O)COC(=O)CCC(=O)c1ccc(Cl)cc1)c1ccccc1 (stereo not drawn) has what solubility kinetic?
Result: > 56.1 µg/mL

Query: Entry "C[C@@H](C(=O)Nc1cccnc1)n1c(=O)[nH]c2ccccc2c1=O" has what solubility kinetic?
Result: > 46.5 µg/mL

Query: Entry "CN(CC(=O)O)S(=O)(=O)c1ccc2[nH]c(=O)c(=O)[nH]c2c1" has what solubility kinetic?
Result: > 47 µg/mL

Query: Entry "NC(=O)Cc1nc(-c2ccc(F)cc2)cs1" has what solubility kinetic?
Result: > 35.4 µg/mL

Query: Entry "O=[N+]([O-])c1cc([N+](=O)[O-])c2cc(-c3cccnc3)[nH]c2c1" has what solubility kinetic?
Result: < 0.2 µg/mL

Query: Entry "O=C(Nc1ccccc1)OCc1cncs1" has what solubility kinetic?
Result: > 35.1 µg/mL

Query: Entry Cc1nn(CC(=O)NC2CCC(C)CC2)c(=O)c(C#N)c1C (stereo not drawn) has what solubility kinetic?
Result: > 45.4 µg/mL

Query: Entry "Cc1cc([N+](=O)[O-])c2ccccc2[n+]1[O-]" has what solubility kinetic?
Result: > 30.6 µg/mL

Query: Entry "CCOC(=O)c1c(NCCN(C)C)c2ccccc2[nH]c1=O" has what solubility kinetic?
Result: > 45.5 µg/mL

Query: Entry "N#Cc1ccc(C(=O)CSc2n[nH]c(=O)n2-c2cccnc2)cc1" has what solubility kinetic?
Result: > 50.6 µg/mL

Query: Entry "COc1ccc(S(=O)(=O)N2CCOCC2)cc1NC(=O)CN(C)CC(=O)Nc1cccc(F)c1" has what solubility kinetic?
Result: > 74.2 µg/mL

###

Entries and their solubility kinetic
# COND: buffer; pH 7.4; 200.0 µM
Numeric only. Scale: µg/mL

Consider the worked cases shown below.
CC(=O)c1ccn(S(=O)(=O)c2ccc(Cl)cc2)c1: 33.9
O=C(CNCc1cccc2ccccc12)Nc1ccccc1[N+](=O)[O-]: 5.4
Cc1ccccc1N1CCN(CCC(=O)Nc2ccc(F)cc2)CC1: 39.9

Query: Entry "N#Cc1ccc(-c2nc3cc(Cl)ccc3c(=O)n2O)cc1" has what solubility kinetic?
Result: 44

###

# COND: buffer; pH 7.4; 200.0 µM
Entries and their solubility kinetic

CCOC(=O)c1cccc(NC(=O)Nc2ccc3c(c2)C(=O)OC3)c1: < 0.4 µg/mL

We now examine a further compound.
Query: Entry "Cc1cc(C(=O)N2CCOCC2)ccc1[N+](=O)[O-]" has what solubility kinetic?
Result: > 37.5 µg/mL

###

# COND: buffer; pH 7.4; 200.0 µM
Label rule, in plain words: solubility kinetic of 30 µg/mL and up is yes (1), under 30 µg/mL is no (0).

Sample answers from the record:
O=C(Nc1ccccc1)c1ccc(NC(=O)c2cccs2)cc1: no (0)
CCNC(=O)C(CCSC)NS(=O)(=O)c1ccc(C)cc1 (stereo not drawn): yes (1)
Nc1ncnc2c1ncn2Cc1ccccc1: yes (1)
O=C(CSc1nncn1-c1ccccc1F)NC1CC1: yes (1)
Cc1csc(NC(=O)CSCC(=O)O)c1-c1nc2ccccc2s1: yes (1)
COc1cc(OC)c2c(c1)S(=O)(=O)C(c1ccccc1)=C2N: no (0)

Query: Check if solubility kinetic >= 30 µg/mL (inclusive). Item: "O=C(CSc1ccccc1C(=O)O)NC12CC3CC(CC(C3)C1)C2"
Result: yes (1)

Query: Check if solubility kinetic >= 30 µg/mL (inclusive). Item: CC(C)N1CC(C(=O)Nc2ccc(Cl)c([N+](=O)[O-])c2)CC1=O (stereo not drawn)
Result: yes (1)

Query: Check if solubility kinetic >= 30 µg/mL (inclusive). Item: "Cc1ccc(C)c(N2CCN(C(=O)C3CCC3)CC2)c1"
Result: yes (1)

Query: Check if solubility kinetic >= 30 µg/mL (inclusive). Item: "CCOC(=O)N1CCN(C(=O)CCc2ccccc2)CC1"
Result: yes (1)

Query: Check if solubility kinetic >= 30 µg/mL (inclusive). Item: CC(C)=CCN1CCN(Cc2ccc(C)s2)CC1CCO (stereo not drawn)
Result: yes (1)

Query: Check if solubility kinetic >= 30 µg/mL (inclusive). Item: "CN(CC(=O)Nc1cccc(F)c1)C(=O)/C=C/c1ccc2ccccc2n1"
Result: no (0)

Query: Check if solubility kinetic >= 30 µg/mL (inclusive). Item: CSC1=NC2(C)CCCCC2C12C=CC(=O)C=C2 (stereo not drawn)
Result: yes (1)

###

Entries and their solubility kinetic
# COND: buffer; pH 7.4; 200.0 µM

Consider the worked cases shown below.
Cc1c(C=N)c(O)n(C)c(=O)c1C#N: > 28.7 µg/mL
Cn1c(=O)n(C)c2cc(NC(=O)CSc3ccccc3)ccc21: > 49.1 µg/mL

Query: Entry "Cc1ccc(Nc2nc(N)nc(CCl)n2)cc1" has what solubility kinetic?
Result: > 37.5 µg/mL

Query: Entry "CC(C)N(C(=O)Cn1c(Cl)nc2ccccc21)C(C)C" has what solubility kinetic?
Result: > 44.1 µg/mL

Query: Entry "O=c1ccc2cc(S(=O)(=O)Nc3ccccc3F)ccc2o1" has what solubility kinetic?
Result: > 47.9 µg/mL

Query: Entry "COC(=O)c1ccc(CN=C(NS(=O)(=O)c2ccccc2)c2ccccc2)cc1" has what solubility kinetic?
Result: > 61.3 µg/mL
